Value source: the EternaBench riboswitch data

tested on: MS2 coat protein; experiment: apparent Kd, MS2 coat protein; higher = weaker binding; RNA-MaP array; FMN 200 µM where present; conditions: designed as: ON switch for flavin mononucleotide; no ligand
Mark yes for reported apparent Kd of 50 nM or greater; mark no for anything smaller.

Worked examples follow.
>  <sequence>
GAAUUCGCAUGAGGAUAUGCACUCAUUUCAUGUGCAGAAGGUAUAUCAUUAGACAUGAGGAUCACCCAUGUAUUGGUCAUUAAA

>  <target_or_system>
MS2 coat protein

>  <label_value>
no

$$$$
>  <sequence>
CCCUAAUAUCGAGGAUAUGUCUAGACACAUGAGGAUCACCCAUGUAUGUGUAUAGAAGGCGAUAUUAACAGCAUGUUACAUCCC

>  <target_or_system>
MS2 coat protein

>  <label_value>
no

$$$$
>  <sequence>
UGGUACUAGGGAGGAUAUGCGAAGAUACAUGAGGAUCACCCAUGUUUAAGAAUGCCGAGAGGCAACUAGAAGGCCCUAGUACCU

>  <target_or_system>
MS2 coat protein

>  <label_value>
no

$$$$
>  <sequence>
GGAGCCGGUACUGAGGAUAUUCAUAUUAAAACAUGAGGAUCACCCAUGUAGGCCAGAAGGCCUUGGGAGAAGGCGGACCAGCUCG

>  <target_or_system>
MS2 coat protein

>  <label_value>
yes

$$$$
>  <sequence>
CCGGAAACGGGUAGCCUGACAUGAGGAUCACCCAUGUGAUCCUAGGAUAUGGAUCCUAAUUGGAUCCAGAAGGAGGUUGGCUAC

>  <target_or_system>
MS2 coat protein

>  <label_value>
yes

$$$$
>  <sequence>
UUGCUCGUGUGAGGAUAUGCCGCCGUUUCGGCUGCAGAAGGUACUUUAAUACAUGAGGAUCACCCAUGUCUCUGUUGUUUCGUG

>  <target_or_system>
MS2 coat protein

>  <label_value>
no

$$$$
>  <sequence>
AAGUCUGGAUGAGGAUAUCAGCUGUAACUGGCGUCGACAUGAGGAUCACCCAUGUUGCUAUAGGGUGAGAAGGCAUUUGGGCAA

>  <target_or_system>
MS2 coat protein

>  <label_value>
no

$$$$
>  <sequence>
GGAGACCUCACAGGAUAUGCUGGACUUUGUCCAGCAGAAGGGUGAAAACAUGAGGAUCACCCAUGUAUGGUCUCCAAAUUUAAC

>  <target_or_system>
MS2 coat protein

>  <label_value>
yes

$$$$
>  <sequence>
GUAGCAUACCGAGGAUAUUCUUACCGGAAACGGACAUGAGGAUCACCCAUGUGGCGAAAGCCUUUGGAGAAGGCGGAAUGCUAC

>  <target_or_system>
MS2 coat protein

>  <label_value>
no

$$$$
>  <sequence>
AGAUUUGUACAUGAGGAUCACCCAUGUUAAUAGGUGGUUGUCAGAAGGCAUUAAUAGAGAUUUAAUGAGGAUAUGAAUUUACAA

>  <target_or_system>
MS2 coat protein

>  <label_value>
yes

$$$$

input: Test whether the sequence GUCGGAAACGACAAAAGUAUGGAUCCAGAAGGCAUGACACAUGAGGAUCACCCAUGUCUAAGAUAUGAGGAUAUGGAUCCAUAC records apparent Kd of 50 nM or higher.
output: no

input: Exam item: decide whether the reported apparent Kd for CCGGAAACGGGUAGCUGACAUGAGGAUCACCCAUGUGUAUCACAGGAUAUGGAUCCUAAUUGGAUCCAGAAGGGUGUCAGCUAC is at least 50 nM.
output: yes

input: Is it the case that UUUUACUAGUAAGGAUAUAUUAGCGAUUAGCUUGUAGAAGGUACAGUCUUAUGUAUAACAUGUUAACAUGAGGAUCACCCAUGU has apparent Kd reaching or exceeding 50 nM?
output: yes

input: Is it the case that CGCUGUCAUGCAGGAUAUGCAUUGGAUUACAAUGCAGAAGGGCGAUUACAUGAGGAUCACCCAUGUGUAGACAGUGAACAAGAG has apparent Kd reaching or exceeding 50 nM?
output: yes

----------
test system: MS2 coat protein; experiment: apparent Kd, MS2 coat protein; higher = weaker binding; RNA-MaP array; theophylline 2 mM where present; settings: ligand present: theophylline; designed as: OFF switch for theophylline
readout: apparent Kd (nM)
# output: bare number, implied unit nM

Recorded apparent Kd, per entry:
>  <sequence>
ACCUACACGGAGACGUGUAGGAGUAAUGAUACCAGCAUGGAGACAUGCCCUUGGCAGCGUUACAUGAGGAUCACCCAUGUGGUGC

>  <readout>
apparent Kd

>  <data_value>
483

$$$$
>  <sequence>
UUCUGGACCCGUGAUACCAGAGACAUGAGGAUCACCCAUGUACAUGAGGAUCACCCAUGUCUCCCUUGGCAGCACUGCAGGGAGC

>  <readout>
apparent Kd

>  <data_value>
875

$$$$
>  <sequence>
UCUUACUAUAGUGAUACCAGACGUACAUGAGGAUCACCCAUGUUACAUUCUUGGUUAAAAGUCCCUUGGCAGCACGAUUUGUUCG

>  <readout>
apparent Kd

>  <data_value>
9.5

$$$$
>  <sequence>
AUGUAAGUGGUGUCACUGUGGUCUAGUGAUACCAGUAUCGAAAGAUACCCUUGGCAGCGCUAGAACAUGAGGAUCACCCAUGUUU

>  <readout>
apparent Kd

>  <data_value>
34.3

$$$$
>  <sequence>
UUUGCACAUGAGGAUCACCCAUGUACAGAUACCAGCCUCAUCUACGGCCCUUGGCAGCUGAGAUAAUGGUGACGUGAUGGGCUUU

>  <readout>
apparent Kd

>  <data_value>
26.3

$$$$

input: Query: apparent Kd; subject: AGCGUAUAGACGGAUACCAGCGCCAAUUAACAUGAGGAUCACCCAUGUAGUGUGGGUGGACGCCCUUGGCAGCCGAGUAUAGGUA
output: 284

input: Param item = UCAUUUGAGUGAGAUGUAAGGUAUCAUGAUACCAGUAGAUAAUUAUACCCUUGGCAGCAUAACAUGAGGAUCACCCAUGUACAUG ; retrieve measured apparent Kd.
output: 24.2

----------
# apparent Kd annotations
system: MS2 coat protein; assay: apparent Kd, MS2 coat protein; higher = weaker binding; RNA-MaP array; FMN 200 µM where present; conditions: designed as: ON switch for flavin mononucleotide; no ligand
Kindly answer with a numeric value in nM, unit omitted.

Guide cases for apparent Kd, answers given:
>  <sequence>
GGUAGAAACAUUAACAUGAGGAUCACCCAUGUCAAAAGAAAUGAGGAUAUCGUAUACAAUGUAUAUGAGAAGGCAUGGUCUGCC

>  <data_value>
9.17

$$$$
>  <sequence>
GUGGUCAGACAUGAGGAUCACCCAUGUGGAAUAAAUAAGGUACAGGAUAUCUAAUAUAGGAUAUAAGAGAAGGGUAGGUUGGUG

>  <data_value>
75.4

$$$$
>  <sequence>
CCUGACGCAUCAGGAUAUGCUUACAUCCAUGUUGCAGAAGGGAUGCGUUCUGAAAACAUGAGGAUCACCCAUGUAAGCGGCCAA

>  <data_value>
82

$$$$

input: Form entry - test system: MS2 coat protein; read-out: apparent Kd; sequence: UUAUGAUUAAGAGGAUAUAUACAACAUGAGGAUCACCCAUGUACCCAUGUAGUAGAAGGUUUAUUUUUAUAUAAUAAUAUAAUU
output: 115

input: Return apparent Kd measured with MS2 coat protein given this sequence: AGUAAGAUGCAGAAGGUGUCAGCGAGAGCUACGACAUGAGGAUCACCCAUGUACUAGUGAGAGUACGAGGAUAUGCAUCUUACA
output: 37.3

input: Lab note: need apparent Kd for UUUAUAAAUUAGAAGGCGAGAUGAAUUACAAUAGACAUGAGGAUCACCCAUGUGUAUUCAUGUCUUGAGGAUAUAGUCAUAUAU on MS2 coat protein, anyone have it?
output: 118

input: // fetch MS2 coat protein apparent Kd for CGGGCAUAUCGAGGAUAUAAGUCUAGGACAUGAGGAUCACCCAUGUAUGUCUUAGAAGGCGAUAUGCCCAGCCUGUUACAGGCA
output: 30

----------
system: MS2 coat protein; test: apparent Kd, MS2 coat protein; higher = weaker binding; RNA-MaP array; theophylline 2 mM where present; settings: designed as: ON switch for theophylline; no ligand
Assign 1 whenever apparent Kd does not fall below 20 nM; assign 0 whenever it does.

>  <sequence>
UACACAUGACAUGAUACCAGCCCAUGUGAACAUGAGGAUCACCCAUGUAUGAGGACAUGAGGCCCUUGGCAGCAUGUAUACAUGA

>  <label_value>
0

$$$$
>  <sequence>
UAAAAUAAAAGGGUGAAGGUAUAAACAGAUACCAGCCAGAUAACUGGCCCUUGGCAGCUGAAUGACAUGAGGAUCACCCAUGUCU

>  <label_value>
0

$$$$
>  <sequence>
AUCCUCUAGAAUGAUACCAGACCAAACAUGAGGAUCACCCAUGUAUCAGGCAAUUGUUACGUCCCUUGGCAGCAUGUAUGCCGAC

>  <label_value>
1

$$$$
>  <sequence>
AGGAAACAACAUGAGGAUCACCCAUGUGAUACCAGUAUCAAAAGAUACCCUUGGCAGCACACAUGACAUGAGGAUCACCCAUGUA

>  <label_value>
1

$$$$
>  <sequence>
UGUAUGUGAUUUGAUACCAGACCAGCUGGUGGUACAUGAGGAUCACCCAUGUAGGUUUGGGUCCCUUGGCAGCAAAUCGCAUACU

>  <label_value>
1

$$$$
>  <sequence>
CAUAAUUUAUCCUAUAAAACUAUUAGUGAUACCAGCACCUCAUGAUGCCCUUGGCAGCACUUACAUGAGGAUCACCCAUGUUUUA

>  <label_value>
1

$$$$

Okay, now this sequence:
input: Is apparent Kd for GGUGAUCCGUAUCACCGGAUCACCGGUGAUACCAGCAUCGAAAGAUGCCCUUGGCAGCACCAACAUGAGGAUCACCCAUGUAAUA at or above 20 nM?
output: 1
